Test system: KM12 colon
Experiment: NCI-60 one-dose screen, 48 h
Details: 10 µM unless noted
The panel holds about 83,000 compounds, 20% with a hit somewhere; the sample as a whole holds those more often. Active and inactive are the calls of the source. How the source made its calls: active means growth percent below 10; inactive means the rest.
Permitted responses: true (active), false (inactive)

Incoming: Test call for this molecule, please: C[n+]1ccc(C#N)c2ccccc21
Outgoing: false

Incoming: Dear colleague, could you share the recorded outcome for CCCCN(CCCC)CCCOC(=O)c1ccc(N)cc1 when you have a moment?
Outgoing: false

Incoming: Recorded test outcome, item C=C(C[C@@](O)(C(=O)Oc1ccccc1)C(=O)C1CCCCC1)c1ccccc1
Outgoing: false

Incoming: What is the recorded call for this molecule in the test? COc1ccc(C2CC(c3ccc(OC)c(OC)c3)=NN2C(=O)c2cc(OC)c(OC)c(OC)c2)cc1 (stereo not given)
Outgoing: false

Incoming: For COC1CC2CCC(C)C(O)(O2)C(=O)C(=O)N2CCCCC2C(=O)OC(C(C)CC2CCC(O)C(OC)C2)CC(=O)C(C)C=C(C)C(O)C(OC)C(=O)C(C)CC(C)/C=C/C=C/C=C1C (stereo not given) , what call appears in the results of this test?
Outgoing: false

Incoming: Tell me the recorded outcome of this test for Cc1cc(CC(=O)O)n(C)c1C(=O)c1ccc(Cl)cc1 .
Outgoing: false

Incoming: Can you look up the reported call for CC(C)C(=O)Cc1cnccn1 for me?
Outgoing: false

Incoming: Tell me the recorded outcome of this test for COc1ccc(/C=C2\COc3ccc(O)c(O)c3C2=O)cc1OC .
Outgoing: false

Incoming: How was CN1COc2ccc3ccccc3c2C1 classified in this test?
Outgoing: false

Incoming: Could you please tell me the result logged for CCOC(=O)c1c(NC(=O)C2CCCCC2C(=O)O)sc2c1CCCC2 (stereo not given) in this assay?
Outgoing: false

Incoming: What classification did CCC(C)(C)C(=O)O[C@H]1C[C@@H](C)C=C2C=C[C@H](C)[C@H](CC[C@@H]3C[C@@H](O)CC(=O)O3)[C@H]21 end up with in this test?
Outgoing: false

Incoming: What call does the record list for CSc1ncc2ncn(C3OC(CO)C(O)C3O)c2n1 (stereo not given) ?
Outgoing: false

Incoming: Fill in: this test's call for COc1ccc(C2=NNC(c3cc(Cc4ccc(O)c(C5CC(c6ccc(OC)cc6)=NN5)c4)ccc3O)C2)cc1 (stereo not given) is ___
Outgoing: false

Incoming: Returns: the outcome recorded for CC(C)COCC(CN(Cc1ccccc1)c1ccccc1)N1CCCC1 (stereo not given) in this assay.
Outgoing: false

Incoming: Status in this test for COc1ccc2c(c1)[nH]c(=O)c1c3cc(OC)c(OC)cc3cn21 ?
Outgoing: true

Incoming: # fetch the recorded call for O=C(CCc1nnc(Cn2ccnc2)o1)c1nc2ccccc2[nH]1 here
Outgoing: false

Incoming: Would you mind telling me which call this test gave C=C1c2c(C)nn(-c3ccc(C#CCOC4OC(CO)C(O)C(O)C4O)cc3)c2N(C)C23C[C@H]1C1(C)c4c(C)nn(-c5ccc(C#CCOC6OC(CO)C(O)C(O)C6O)cc5)c4N(C)C(C)(C[C@H]12)C3 (stereo not given in full) ?
Outgoing: true

Incoming: Give the logged outcome of this assay for the following molecule: O=C(C(=O)N1CCCCC1)c1ccc(OC2OC(CO)C(O)C(O)C2O)cc1 (stereo not given)
Outgoing: false

Incoming: State the result this test recorded for COc1ccc(-c2c3c(nn2-c2ccc(N)cc2)CCc2cnoc2-3)cc1OC .
Outgoing: false

Incoming: Call for entry O=C1/C(=C/c2ccc([N+](=O)[O-])o2)Oc2ccc(Br)cc21 :
Outgoing: false

* * *

Tested on: A549/ATCC NSCLC
Assay: NCI-60 one-dose screen, 48 h
Details: 10 µM unless noted
About 83,000 compounds went through this panel and 20% of them were active in at least one assay; those are over-represented in the sample as a whole. Active and inactive are the calls of the source. Rule for the calls: active = growth percent below 10; inactive = the rest.
API: response.call in active, inactive

Incoming: Call for entry O=C1C(Cl)=C(N=Nc2c(Cl)c(O)c3ccccc3c2O)C(=O)c2ccccc21 :
Outgoing: inactive

Incoming: State the result this test recorded for O=C(CCc1nnc(Cn2cncn2)o1)c1nc2ccccc2[nH]1 .
Outgoing: inactive

Incoming: Test call, this molecule: CCN(CC)c1ccc(C(O)C2=CC(=O)c3ccccc3C2=O)cc1 (stereo not given)
Outgoing: inactive

Incoming: Lab log entry: COc1cc(-c2cc(C(=O)Nc3nc4ccccc4s3)nc3cc(-c4ccccc4)nn23)cc(OC)c1OC — outcome as called in the assay?
Outgoing: inactive

Incoming: Per the records of this test, what outcome belongs to O=C(COC(=O)[C@H](C[Se][Se]C[C@H](NC(=O)c1ccc(Br)cc1F)C(=O)OCC(=O)c1ccc(F)cc1)NC(=O)c1ccc(Br)cc1F)c1ccc(F)cc1 ?
Outgoing: active

Incoming: Please share the test call associated with Cc1cc(N2CCOCC2)nc(N2CCOCC2)n1 .
Outgoing: inactive

Incoming: In this assay, the call recorded for O=C(CCc1nnc(SCc2ccccc2)s1)c1nc2ccccc2[nH]1 was what?
Outgoing: inactive

Incoming: What did this assay record as the result for COc1ccc(-c2cncn2-c2ccc(-c3nc4cc(OC)c(OC)c(OC)c4s3)cc2)cc1N ?
Outgoing: inactive

Incoming: Outcome logged for CC(C)c1nc(N(C)S(C)(=O)=O)nc(-c2ccc(F)cc2)c1/C=C/[C@@H](O)C[C@@H](O)CC(=O)O in this assay:
Outgoing: inactive

Incoming: What did the test return for Cc1cc(NC(=O)Nc2cccc3ccccc23)no1 ?
Outgoing: inactive

Incoming: // return assay outcome for O=C(Nc1ccc(C2=NCCCN2)cc1)Nc1ccc(C2=NCCCN2)cc1
Outgoing: inactive

Incoming: I'd appreciate the recorded outcome for COc1ccc2nc3cc(Cl)ccc3c(Nc3cc(C(C)C)c(O)cc3C)c2c1 from this test.
Outgoing: inactive

Incoming: Record lookup: outcome of this test for COc1ccc(-c2csc(NC(=O)c3cc(O)c(O)c(O)c3)n2)cc1 ?
Outgoing: inactive

Incoming: Test call, this molecule: Clc1ccc([C@@H]2C[C@@H]3Cc4cc(Br)c5ccccc5c4N2O3)c(Cl)c1
Outgoing: inactive

Incoming: Any idea what this test logged for Cc1c(C(N)=O)sc2ncn(Cc3ccccc3)c(=O)c12 ?
Outgoing: inactive

Incoming: Tell me the recorded outcome of this test for O=C(c1nn(-c2ccc(Cl)cc2)cc1O)n1nc(C(F)(F)F)cc1-c1ccccc1 .
Outgoing: inactive

Incoming: Status in this test for COC(=O)[C@]1(C(C)C)N[C@H](c2cn(-c3ccccc3)nc2-c2ccccc2)[C@@H]2C(=O)N(c3ccc(Cl)cc3)C(=O)[C@@H]21 ?
Outgoing: inactive

Incoming: Short answer needed: outcome of this test for O=C(CSc1nc2c(n1Nc1ccccc1)-c1ccccc1SC2)Nc1nc(-c2ccc(Cl)cc2)cs1 ?
Outgoing: inactive

Incoming: Tell me the assay call for c1cncc(CNc2ccccc2-c2nnc(Nc3ccc4c(c3)OCO4)o2)c1 please.
Outgoing: inactive

Incoming: Which outcome did this test record for the molecule O=C(Nc1cccc(C(F)(F)F)c1)Nc1ccc(OCc2nnc(-c3ccc(Cl)cc3)o2)c(F)c1 ?
Outgoing: inactive

* * *

System: KM12 colon
Assay: NCI-60 one-dose screen, 48 h
Settings: 10 µM unless noted
The panel holds about 83,000 compounds, 20% with a hit somewhere; the sample as a whole holds those more often. Calls of active or inactive are those of the source. The calls were made as follows: active = growth percent below 10; inactive = the rest.
Reply using exactly one outcome from 1.0 (active), 0.0 (inactive)

Incoming: Can you look up the reported call for Cc1ccc(NC(=O)COC(=O)c2ccc(S(=O)(=O)N3CCCCCC3)cc2)cc1 for me?
Outgoing: 0.0

Incoming: So what was the verdict on O=C1OCCCCCCCCCC#Cc2ccccc21 in this test?
Outgoing: 0.0

Incoming: Just curious, what result did CCN(CC)CCCNCCCNc1cc(OC)cc2cccnc12 get here?
Outgoing: 0.0

Incoming: State the result this test recorded for COc1cccc(-c2nnc(N)o2)c1 .
Outgoing: 0.0

Incoming: Answer briefly: the call reported for C[C@]12CC[C@@H]3c4ccc(O)c([N+](=O)[O-])c4CC[C@H]3[C@@H]1CC[C@@H]2NS(=O)(=O)c1cccc(Br)c1 in this assay.
Outgoing: 0.0

Incoming: Hey, what did the test say about CCSc1nnc2n(Cc3ccccc3)c(=O)c3c(C)c(C(N)=O)sc3n12 ?
Outgoing: 0.0

Incoming: // return assay outcome for COc1cc(C2=NN(C(C)=O)C(c3ccc(OC(C)=O)cc3OC(C)=O)O2)c(OC(C)=O)c2ccccc12 (stereo not drawn)
Outgoing: 0.0

Incoming: Short answer needed: outcome of this test for Nc1ccc2c3c(cccc13)-c1ccccc1-2 ?
Outgoing: 0.0

Incoming: Kindly provide the recorded test outcome for the following compound: NNC(=O)C1CC2c3ccccc3C1c1ccccc12 (stereo not drawn)
Outgoing: 0.0

Incoming: Test call, this compound: O=C1CC(=O)N(c2ccccc2)O1
Outgoing: 0.0

Incoming: Lab log entry: O=C(CN1CCCCC1)Sc1nnc2sc3ccccc3n12 — outcome as called in the assay?
Outgoing: 0.0

Incoming: Kindly provide the recorded test outcome for the following compound: O=C(O)c1ccc(NC(=O)c2ccc(Nc3ccnc(C(F)(F)F)c3)cc2)cc1
Outgoing: 0.0

Incoming: Just curious, what result did NCCCc1nnc(CCC(=O)c2nc3ccccc3[nH]2)o1 get here?
Outgoing: 0.0

Incoming: Called result for O=C(CCc1nnc(Cn2cncn2)o1)c1nc2ccccc2[nH]1
Outgoing: 0.0

Incoming: Assay outcome for Cc1ccc([N+](=O)[O-])cc1NC(=O)Nc1cccc(F)c1 : what was it?
Outgoing: 0.0

Incoming: Hey, what did the test say about O=c1ccn(C2CCCO2)c(=O)[nH]1 (stereo not drawn) ?
Outgoing: 0.0

Incoming: # fetch the recorded call for C/C(=N/N=C(N)N)c1ccc(Cl)cc1 here
Outgoing: 0.0

Incoming: Which outcome did this test record for the compound O=C(CCc1nnc2sc(Cc3ccccc3Cl)nn12)c1nc2ccccc2[nH]1 ?
Outgoing: 0.0

Incoming: What did the test return for O=C(/C=C/c1cc2ccccc2[nH]c1=O)c1ccc(O)cc1 ?
Outgoing: 1.0

Incoming: What did the test return for c1ccc2cc(C[n+]3ccn(CCCCCCCn4cc[n+](Cc5ccc6ccccc6c5)c4)c3)ccc2c1 ?
Outgoing: 0.0

Incoming: I'd appreciate the recorded outcome for COc1ccc2nccc(/C=C/c3ccnc4ccc(OC)cc34)c2c1 from this test.
Outgoing: 0.0

Incoming: What was the test verdict on COc1ccc2nc(-c3ccc(-n4cncc4-c4ccc(OC)c(N)c4)cc3)sc2c1 ?
Outgoing: 0.0

Incoming: Hi, sorry to bother you, what did the test record for Cc1cc(C)c2c(c1)N1OC(C2)C[C@H]1/C=C/c1ccccc1 (stereo partly drawn) ?
Outgoing: 0.0
